Tested on: CYP1A2
Assay: multiplex RT-qPCR, CYP1A2 mRNA expression in HepG2 cells
Conditions: HepG2, 48 h; not necessarily statistically significant
Give concentration from which CYP1A2 mRNA induction was detected/observed for every item shown.

Identify measured concentration from which CYP1A2 mRNA induction was detected/observed obtained with CYP1A2 for O=c1cc(-c2ccccc2)oc2ccc3ccccc3c12 [β-naphthoflavone] .
≥ 5000 nM

Identify measured concentration from which CYP1A2 mRNA induction was detected/observed obtained with CYP1A2 for COc1ccc2[nH]c([S+]([O-])Cc3ncc(C)c(OC)c3C)nc2c1 (stereo not shown) [omeprazole] .
≥ 1000 nM

Identify measured concentration from which CYP1A2 mRNA induction was detected/observed obtained with CYP1A2 for Oc1ccc(/C=C/c2cc(O)cc(O)c2)cc1 [resveratrol] .
≥ 100 nM

Identify measured concentration from which CYP1A2 mRNA induction was detected/observed obtained with CYP1A2 for CC(C)=CCC/C(C)=C/COc1c2ccoc2cc2oc(=O)ccc12 [bergamottin] .
≥ 1000 nM

====

Tested on: CYP3A4
Test: western blot analysis, CYP3A4 protein expression in HepG2 cells
Conditions: HepG2 cells, 48 h, western blot densitometry normalized to β-actin, vs DMSO control
attribute.measured: effect on CYP3A4 protein expression

compound: CC(C)=CCC/C(C)=C/COc1c2ccoc2cc2oc(=O)ccc12
tested.on: CYP3A4
value.observed: did not affect
//
compound: C=C1CC[C@@H]2[C@](C)(CO)[C@H](O)CC[C@@]2(C)[C@@H]1C/C=C1/C(=O)OC[C@H]1O [andrographolide]
tested.on: CYP3A4
value.observed: did not affect
